The origin of these recorded values is paper PMC11766601.

test system: Caco-2 cell monolayers; experiment: Toxin crossing and apparent permeability across Caco-2 cell monolayers (A to B), LC-MS/MS; assay type: in vitro ADME, human; conditions: 6 h, loaded 16 ng/mL, A to B, relative to quantified T0
A collection of compounds and their measured Percentage of toxin crossing the Caco-2 cell monolayers

Previously resolved entries follow.
C=CC1=CC2C3OC4(CC(C)CC3O4)CC3OC4(CCC5(OC(CCC5(C)O)CC(=C)CCCC5=NCC(C)C(C)CC52CC1)O4)CC(C)C3O (stereo not drawn) = 48.83 ± 11.22%
C=C1CCCC2=NCC(C)C(C)CC23CCC(C(=O)O)=CC3C2OC3(CC4CCCC5(CCC6(OC(CCC6(C)O)C1)O5)O4)CC(C)C(O)C2O3 (stereo not drawn) = 3.10 ± 1.53%
C=C1CCCC2=NCC(C)C(C)CC23CCC(C2CCC(=O)O2)=CC3C2OC3(CC(C)CC2O3)CC2OC3(CCC4(OC(CCC4(C)O)C1)O3)CC(C)C2O (stereo not drawn) = 18.36 ± 4.64%

Prompt: Param readout= Percentage of toxin crossing the Caco-2 cell monolayers; system= Caco-2 cell monolayers; entry= C=C1CCCC2=NCC(C)C(C)CC23CCC(C(O)CCC(=O)O)=CC3C2OC3(CC(C)CC2O3)CC2OC3(CCC4(OC(CCC4(C)O)C1)O3)CC(C)C2O (stereo not drawn) ; returns value.
Response: 2.40 ± 1.06%

Prompt: Param readout= Percentage of toxin crossing the Caco-2 cell monolayers; system= Caco-2 cell monolayers; entry= C=CC1=CC2C3O[C@]4(CCC(O4)[C@@H](C)C[C@@H](O)C3=O)C[C@H](O)C3=NCC[C@@]32CC1 (stereo partly drawn) ; returns value.
Response: 30.63 ± 5.62%

Prompt: Param readout= Percentage of toxin crossing the Caco-2 cell monolayers; system= Caco-2 cell monolayers; entry= C=CC1=CC2C3OC4(CC5CCCC6(CCC7(OC(CCC7(C)O)CC(=C)CCCC7=NCC(C)C(C)CC72CC1)O6)O5)CC(C)C(O)C3O4 (stereo not drawn) ; returns value.
Response: 36.83 ± 5.26%
